assay: Cytostatic activity against human NCI60 cells by SRB assay; type: functional

- query smiles: "O=C1/C=C/[C@@H](O)[C@@H]2C[C@@H](O)C[C@H]2/C=C/CCC[C@H](C(F)(F)F)O1"
  GI50: "321 nM"
- query smiles: "Nc1ccc(CC[C@H]2CCC/C=C/[C@@H]3C[C@H](O)C[C@H]3[C@H](O)/C=C/C(=O)O2)cc1"
  GI50: "34.3 nM"
- query smiles: "O=C1/C=C/[C@@H](O)[C@@H]2C[C@@H](O)C[C@H]2/C=C/CCC[C@H](CCc2ccc3cccnc3c2)O1"
  GI50: "262 nM"
- query smiles: "O=C1/C=C/[C@@H](O)[C@@H]2C[C@@H](O)C[C@H]2/C=C/CCCCO1"
  GI50: "631 nM"
- query smiles: "COCC[C@H]1CCC/C=C/[C@@H]2C[C@H](O)C[C@H]2[C@H](O)/C=C/C(=O)O1"
  GI50: "90.2 nM"
- query smiles: "C=C[C@@H]1CCC/C=C/[C@@H]2C[C@H](O)C[C@H]2[C@H](O)/C=C/C(=O)O1"
  GI50: "630 nM"
- query smiles: "O=C1/C=C/[C@@H](O)[C@@H]2C[C@@H](O)C[C@H]2/C=C/CCC[C@H](CCc2cccc3ccccc23)O1"
  GI50: "73.9 nM"
- query smiles: "O=C1/C=C/[C@@H](O)[C@@H]2C[C@@H](O)C[C@H]2/C=C/CCC[C@H](CCc2ccc(C(F)(F)F)cc2)O1"
  GI50: "212 nM"
- query smiles: "CC(=O)[C@H]1CCC/C=C/[C@@H]2C[C@H](O)C[C@H]2[C@H](O)/C=C/C(=O)O1"
  GI50: "594 nM"
- query smiles: "CC(=O)Nc1ccc(CC[C@H]2CCC/C=C/[C@@H]3C[C@H](O)C[C@H]3[C@H](O)/C=C/C(=O)O2)cc1"
  GI50: "152 nM"
- query smiles: "CC[C@H]1CCC/C=C/[C@@H]2C[C@H](O)C[C@H]2[C@H](O)/C=C/C(=O)O1"
  GI50: "44.6 nM"
- query smiles: "O=C1/C=C/[C@@H](O)[C@@H]2C[C@@H](O)C[C@H]2/C=C/CCC[C@H](CCc2ccccc2)O1"
  GI50: "29.9 nM"
- query smiles: "C[C@H]1CCC/C=C/[C@@H]2C[C@H](O)C[C@H]2[C@H](O)/C=C/C(=O)O1"
  GI50: "20.6 nM"
- query smiles: "O=C1/C=C/[C@@H](O)[C@@H]2C[C@@H](O)C[C@H]2/C=C/CCC[C@H](CCOCc2ccccc2)O1"
  GI50: "80.9 nM"
